# Tested on: UO-31 renal
# assay_explanation: NCI tumour cell line growth inhibition, 48 h
Please respond with reported TGI for every item in the list.

Q) Quickly give me recorded TGI for `CCOC(=O)c1cc(-c2ccn(C(C)=O)c2)c(-c2cc(C)co2)[nH]1`
A) > 100 µM

Q) Please look at this compound and report its TGI: `O=C(O)c1oc2cccc3c2c1CCC3`
A) > 100 µM

Q) Write down TGI measured for item CCOC(=O)CCC(C(=O)OCC)n1nnc2cc(Nc3c(C)[n+]([O-])c4ccc(Cl)cc4[n+]3[O-])ccc21 (stereo not given)
A) > 100 µM

Q) For the compound `O=c1[nH]cnc2nc(-c3ccc(N(CCCl)CCCl)cc3)[nH]c12` , give its measured TGI value.
A) 38.3 µM

Q) Tell me its TGI given CCOC(=O)c1c(-c2ccc(OC)c(O)c2)c(C#N)c(=S)n(C2OC(CO)C(O)C(O)C2O)c1-c1ccccc1 (stereo not given) as the entry.
A) > 100 µM

* * *

# Test system: SK-MEL-2 melanoma
# assay_explanation: NCI tumour cell line growth inhibition, 48 h
Exercise: state measured TGI for each of the molecules provided.
# output: bare number, implied unit µM

Q) Return value of TGI for input C=C1C(=O)O[C@H]2C3C(=C(C)CC[C@@H]12)C(=O)[C@@H]1OC31C (some centres undefined) , no commentary.
A) 18.3

Q) Given `Nc1ccc(-c2nc3ccccc3s2)cc1` , respond with its TGI.
A) 64.2

Q) Report measured TGI; entry is CC(=O)O[C@H]1C(=O)[C@@]2(C)C(C(OC(=O)c3ccccc3)[C@]3(O)CC(OC(=O)C(O)C(NC(=O)c4ccccc4)c4ccc(C)cc4)C(C)=C1C3(C)C)[C@]1(OC(C)=O)CO[C@@H]1C[C@@H]2O (some centres undefined)
A) 0.121

* * *

# System: HS 578T breast
# assay_explanation: NCI tumour cell line growth inhibition, 48 h
Can you tell me TGI for the items I'm about to list?

Q) Answer with reported TGI of `O=S(=O)(O)c1ccc(Nc2ccnc3cc(Cl)ccc23)cc1`
A) > 100 µM

Q) Fill in TGI for record `N#Cc1ncc(N2C(=O)C3(CCC3)N(c3ccc(OC4CCNCC4)nc3)C2=S)cc1C(F)(F)F`
A) 41.5 µM

Q) For the compound `Cc1ccc(/C=C2\CN(Cc3cn(CCNc4ccnc5cc(Cl)ccc45)nn3)C/C(=C\c3ccc(C)cc3)C2=O)cc1` , give its reported TGI.
A) 5.53 µM

Q) Return value of TGI for input CC1(C)Oc2ccc3c(=O)c4ccccc4oc3c2C1C(=O)O (stereo not given) , no commentary.
A) > 100 µM

Q) Respond only with TGI recorded for Cc1cc(C)c2c(c1)CC1(Cc3c(C)cc(C)cc3C1=O)C2=O (stereo not given)
A) > 100 µM

Q) Read the entry `c1ccc(-c2cnc3nc4ccccc4nc3n2)cc1` and write its reported TGI.
A) 33.3 µM

Q) Given `CC(=O)NS(=O)(=O)c1ccc(-n2nc(-c3ccccc3)cc2C2=CC(=O)C=CC2=O)cc1` , respond with its TGI.
A) > 100 µM

Q) Input `C=C1C(=O)O[C@H]2[C@H]([C@H](C)CCCC(C)=O)O[C@H]([C@@]3(C)CCC(=O)O3)C[C@@H]12` , output reported TGI.
A) > 100 µM

Q) Note TGI for the compound shown: CC(C)=CCC/C(C)=C/[C@H]1OC(=O)CC12C[C@H](O)C=CC2=O (stereo not given in full)
A) 5.02 µM

Q) # return recorded TGI for input COC(=O)C1=C(C)NC2(C)OC(C)(O)C(C(C)=O)C12C(C)=O (stereo not given)
A) 65.1 µM
